System: PPARg:RXRa 270nM:90nM, anti-RXR (NR concentration 270 nM, RXRa partner concentration 90 nM)
Assay: PBM binding z-score (relative to random genomic background probes); higher = stronger binding; sequences stand for … in GC…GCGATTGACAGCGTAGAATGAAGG
Property: PBM binding z-score
Give a plain numeric answer without units written out.

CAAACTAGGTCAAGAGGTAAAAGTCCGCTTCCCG	7.58

Query: Quick check: PBM binding z-score of `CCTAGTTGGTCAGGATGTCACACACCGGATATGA` ?
Result: 0.76

Query: // PBM binding z-score lookup, key: `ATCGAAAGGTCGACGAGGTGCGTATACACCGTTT`
Result: 2.73

Query: What value of PBM binding z-score has been reported for the following sequence? `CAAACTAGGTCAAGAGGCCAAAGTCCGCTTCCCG`
Result: 6.59

Query: Which value of PBM binding z-score has been reported for `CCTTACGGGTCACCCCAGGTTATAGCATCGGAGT` in the records?
Result: 4.51

Query: # lookup: PBM binding z-score of `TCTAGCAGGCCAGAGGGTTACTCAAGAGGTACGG`
Result: 1.73

* * *

Test system: PPARa:RXRa (NR concentration 270 nM, RXRa partner concentration 90 nM)
Assay: PBM binding z-score (relative to random genomic background probes); higher = stronger binding; sequences stand for … in GC…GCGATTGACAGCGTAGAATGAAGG
# PBM binding z-score annotations
API note: the answer field is a bare number with no unit suffix.

Known PBM binding z-score results, listed for orientation:
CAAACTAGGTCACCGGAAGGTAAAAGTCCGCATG	5.39
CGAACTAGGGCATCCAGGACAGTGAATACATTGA	2.12
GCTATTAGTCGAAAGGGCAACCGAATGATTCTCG	1.74
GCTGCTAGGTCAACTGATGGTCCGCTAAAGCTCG	3.41
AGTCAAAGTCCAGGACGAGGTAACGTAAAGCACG	0.01

# evaluate next
Query: Entry under review: `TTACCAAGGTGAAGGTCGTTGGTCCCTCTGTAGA` . Reported PBM binding z-score?
Result: 2.45

* * *

Listed below: PBM binding z-score values for each entry.
System: LXRa homodimer (NR concentration 270 nM)
Test: PBM binding z-score (relative to random genomic background probes); higher = stronger binding; sequences stand for … in GC…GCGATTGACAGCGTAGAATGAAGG
Form rule: numeric answer, no unit written next to it.

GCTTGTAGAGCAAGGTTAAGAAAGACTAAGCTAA	-0.567

Query: Request body: readout PBM binding z-score, system LXRa homodimer (NR concentration 270 nM), query `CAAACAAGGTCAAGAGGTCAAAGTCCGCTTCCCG` . Return the value.
Result: 7.29

Query: GET /values?readout=PBM binding z-score&system=LXRa homodimer (NR concentration 270 nM)&item= `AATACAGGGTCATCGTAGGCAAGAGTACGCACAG`
Result: 2.1

Query: // fetch LXRa homodimer (NR concentration 270 nM) PBM binding z-score for `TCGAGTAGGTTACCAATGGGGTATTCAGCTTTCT`
Result: -0.345

Query: Please state recorded PBM binding z-score (tested on LXRa homodimer (NR concentration 270 nM)) of `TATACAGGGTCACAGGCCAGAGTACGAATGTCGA`
Result: 2.06

Query: Given the entry `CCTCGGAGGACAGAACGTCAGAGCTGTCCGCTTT` , what PBM binding z-score was observed with LXRa homodimer (NR concentration 270 nM)?
Result: -0.707

Query: Given the entry `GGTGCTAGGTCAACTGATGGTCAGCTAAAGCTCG` , what PBM binding z-score was observed with LXRa homodimer (NR concentration 270 nM)?
Result: 0.481

Query: Item `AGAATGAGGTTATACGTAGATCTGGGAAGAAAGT` with LXRa homodimer (NR concentration 270 nM) - PBM binding z-score?
Result: -0.23

Query: Value wanted: PBM binding z-score (LXRa homodimer (NR concentration 270 nM)) of entry `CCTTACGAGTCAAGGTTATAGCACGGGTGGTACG`
Result: -0.0296

Query: Requested read-out PBM binding z-score, target or system LXRa homodimer (NR concentration 270 nM), entry `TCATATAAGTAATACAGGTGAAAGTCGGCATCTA`
Result: 0.589

Query: Please tell me: PBM binding z-score of `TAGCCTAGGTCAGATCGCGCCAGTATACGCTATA` , system LXRa homodimer (NR concentration 270 nM)?
Result: -0.15

Query: Can you look up PBM binding z-score on LXRa homodimer (NR concentration 270 nM) for `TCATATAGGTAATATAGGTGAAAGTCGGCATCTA` ?
Result: 0.157

Query: Could you share what PBM binding z-score was measured for `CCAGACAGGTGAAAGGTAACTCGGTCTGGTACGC` , tested on LXRa homodimer (NR concentration 270 nM)?
Result: -0.368

Query: Give PBM binding z-score (LXRa homodimer (NR concentration 270 nM)) of the following sequence: `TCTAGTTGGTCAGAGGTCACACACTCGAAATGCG`
Result: 3.21

Query: Notebook entry, LXRa homodimer (NR concentration 270 nM) assay: PBM binding z-score of `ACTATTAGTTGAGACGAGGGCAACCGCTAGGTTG` = ?
Result: -0.0789

Query: Request: PBM binding z-score, test system LXRa homodimer (NR concentration 270 nM), entry `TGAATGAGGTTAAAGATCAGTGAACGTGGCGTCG`
Result: -0.442

Query: Find the measured PBM binding z-score: item `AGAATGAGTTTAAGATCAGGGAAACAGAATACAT` , target or system LXRa homodimer (NR concentration 270 nM).
Result: -0.102

* * *

Tested on: RARg:RXRa (NR concentration 270 nM, RXRa partner concentration 90 nM)
Assay: PBM binding z-score (relative to random genomic background probes); higher = stronger binding; sequences stand for … in GC…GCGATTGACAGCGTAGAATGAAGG
Property: PBM binding z-score
API note: the answer field is a bare number with no unit suffix.

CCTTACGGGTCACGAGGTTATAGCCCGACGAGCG	6.07
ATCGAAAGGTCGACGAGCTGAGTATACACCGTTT	3.86
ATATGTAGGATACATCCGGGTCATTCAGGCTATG	1.58

Query: What does the record list as PBM binding z-score for `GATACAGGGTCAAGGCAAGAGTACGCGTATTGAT` ?
Result: 5.5

Query: Would you mind telling me what PBM binding z-score value was observed for `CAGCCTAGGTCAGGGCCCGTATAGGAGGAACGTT` ?
Result: 2.9

Query: Tell me the measured PBM binding z-score of `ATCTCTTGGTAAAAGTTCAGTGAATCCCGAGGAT` , please.
Result: 1.43

Query: Please look up its PBM binding z-score: `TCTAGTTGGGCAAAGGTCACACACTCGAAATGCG`
Result: 6.49

Query: Fill blank: measured PBM binding z-score of the sequence `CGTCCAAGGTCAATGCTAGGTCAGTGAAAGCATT` is ____.
Result: 7.68

* * *

Test system: RARb homodimer (NR concentration 270 nM)
Test: PBM binding z-score (relative to random genomic background probes); higher = stronger binding; sequences stand for … in GC…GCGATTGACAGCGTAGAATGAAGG
Property: PBM binding z-score

Below, each entry is followed by its recorded PBM binding z-score result.
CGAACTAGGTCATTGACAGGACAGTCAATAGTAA	2.6
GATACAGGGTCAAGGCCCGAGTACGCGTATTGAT	3.19
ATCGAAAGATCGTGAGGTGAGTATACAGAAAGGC	-0.106

Query: PBM binding z-score; subject: `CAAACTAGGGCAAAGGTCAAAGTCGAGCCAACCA`
Result: 4.68

Query: Give the measured PBM binding z-score of `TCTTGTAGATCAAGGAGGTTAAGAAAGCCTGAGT` .
Result: 0.594

* * *

Test system: PPARg DBDmut IVT, anti-PPARg (DBD mutation: PPARg1 K132A/R137A, NR concentration 270 nM)
Assay: PBM binding z-score (relative to random genomic background probes); higher = stronger binding; sequences stand for … in GC…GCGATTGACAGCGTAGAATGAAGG
Hi, to clarify the labels: 1 covers PBM binding z-score from 0.3 upward, 0 covers anything below 0.3.

Use these answered entries as a reference point.
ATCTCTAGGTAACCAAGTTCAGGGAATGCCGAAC	1
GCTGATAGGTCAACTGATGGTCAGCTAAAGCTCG	0
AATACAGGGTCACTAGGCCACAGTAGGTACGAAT	1
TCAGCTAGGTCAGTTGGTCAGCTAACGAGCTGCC	0
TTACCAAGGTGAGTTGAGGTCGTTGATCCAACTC	0

Query: // inclusive: PBM binding z-score at least 0.3? input: `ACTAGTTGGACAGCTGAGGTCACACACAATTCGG`
Result: 1

Query: Does `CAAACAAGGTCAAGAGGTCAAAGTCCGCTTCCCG` have a reported PBM binding z-score of at least 0.3?
Result: 1

Query: Determine whether this sequence has PBM binding z-score no lower than 0.3: `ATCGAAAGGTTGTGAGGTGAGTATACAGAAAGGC`
Result: 1
